All values here come from paper PMC4912634.

molecular target: DARPin-tubulin complex (used in ITC) ( (porcine or bovine brain), UniProt Q6B856 1-445); experiment: ITC
Sequence (chain, as listed by the source, chain 1 of 3): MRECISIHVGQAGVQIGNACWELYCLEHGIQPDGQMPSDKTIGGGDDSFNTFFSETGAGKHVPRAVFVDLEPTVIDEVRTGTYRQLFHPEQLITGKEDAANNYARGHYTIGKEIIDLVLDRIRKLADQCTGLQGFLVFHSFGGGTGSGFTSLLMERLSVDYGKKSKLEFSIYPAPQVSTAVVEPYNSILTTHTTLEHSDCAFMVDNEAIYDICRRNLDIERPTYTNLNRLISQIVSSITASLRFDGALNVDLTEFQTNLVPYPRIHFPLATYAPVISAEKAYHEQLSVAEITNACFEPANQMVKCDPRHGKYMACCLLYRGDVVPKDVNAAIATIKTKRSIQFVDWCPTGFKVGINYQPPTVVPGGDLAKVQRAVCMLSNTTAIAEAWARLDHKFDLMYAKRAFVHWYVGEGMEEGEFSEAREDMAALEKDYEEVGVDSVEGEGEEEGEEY
Sequence (Q6B856 whole entry, chain 2 of 3): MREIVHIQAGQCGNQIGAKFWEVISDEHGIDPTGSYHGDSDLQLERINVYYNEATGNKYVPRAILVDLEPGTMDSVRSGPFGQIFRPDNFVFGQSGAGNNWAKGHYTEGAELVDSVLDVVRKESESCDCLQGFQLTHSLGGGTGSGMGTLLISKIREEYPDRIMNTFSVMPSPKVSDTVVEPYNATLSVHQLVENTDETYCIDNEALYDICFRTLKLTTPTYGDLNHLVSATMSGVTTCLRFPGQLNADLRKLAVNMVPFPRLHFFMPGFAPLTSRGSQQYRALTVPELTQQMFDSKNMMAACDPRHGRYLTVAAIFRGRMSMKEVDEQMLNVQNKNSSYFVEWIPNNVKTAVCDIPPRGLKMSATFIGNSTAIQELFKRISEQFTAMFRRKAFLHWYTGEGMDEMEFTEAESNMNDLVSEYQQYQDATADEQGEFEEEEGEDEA
Sequence (chain, as listed by the source, chain 3 of 3): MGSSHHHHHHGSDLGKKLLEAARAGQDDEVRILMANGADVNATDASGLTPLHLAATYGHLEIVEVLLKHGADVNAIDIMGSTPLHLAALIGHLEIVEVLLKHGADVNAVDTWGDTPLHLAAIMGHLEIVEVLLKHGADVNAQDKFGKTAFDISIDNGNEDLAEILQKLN
reported-endpoint: Kd (µM)

[[record]]
binder = "KQPFLKRGEGLARFTNAKSKFQK [PN2-3C peptide (PN2-3's C-terminus, aa 372-394 of CPAP)]"
reported_endpoint = "Kd"
numeric_value = 3.4

